assay_name: Antiplatelet aggregation activity in human rich plasma assessed as reduction in ADP-induced platelet aggregation
Format: functional, cell-based
measured_parameter: pEC50
The value called pEC50 is obtained by taking minus log10 of the concentration in mol/L.

Output pEC50 of O=C1CN2Cc3c(ccc(Cl)c3Cl)N=C2N1 [ANAGRELIDE]
6.40

----------
target_or_test_system: Ribonuclease SLFN12 (Homo sapiens, UniProt Q8IYM2)
Sequence (Q8IYM2 whole entry): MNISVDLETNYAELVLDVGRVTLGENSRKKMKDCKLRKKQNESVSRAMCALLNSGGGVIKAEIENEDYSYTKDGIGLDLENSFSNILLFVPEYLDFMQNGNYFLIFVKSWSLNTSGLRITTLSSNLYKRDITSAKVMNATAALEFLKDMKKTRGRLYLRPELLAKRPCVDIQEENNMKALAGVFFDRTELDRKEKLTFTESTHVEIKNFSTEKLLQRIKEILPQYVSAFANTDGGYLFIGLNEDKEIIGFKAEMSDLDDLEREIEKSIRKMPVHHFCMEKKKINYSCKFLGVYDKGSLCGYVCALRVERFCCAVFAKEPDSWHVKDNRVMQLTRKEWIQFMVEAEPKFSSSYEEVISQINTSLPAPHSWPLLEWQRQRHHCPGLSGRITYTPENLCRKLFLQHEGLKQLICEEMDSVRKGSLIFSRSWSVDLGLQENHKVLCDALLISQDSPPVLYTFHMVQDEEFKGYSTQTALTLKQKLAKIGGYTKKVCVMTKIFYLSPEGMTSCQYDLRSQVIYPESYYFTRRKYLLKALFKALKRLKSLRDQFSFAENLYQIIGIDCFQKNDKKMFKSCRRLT
assay_name: Binding affinity to SLFN12 (unknown origin) assessed as dissociation constant
measured_parameter: pKd
The value called pKd is obtained by taking minus log10 of the concentration in mol/L.

Output pKd of CCN(CC)c1ccc(C2=NNC(=O)C[C@H]2C)cc1[N+](=O)[O-]
6.06
